meta.source: patent US20110178104A1

experimental_protocol: in vitro
Type: cell-based, human
assay_setup: human, pH 7.4
readout: hemolysis at 1 h (%)
Reply with just the number (in %).

Answered cases to consult:
COc1ccc(NC(=O)[C@@H](CCCNC(=N)N)NC(=O)c2cc(NC(=O)[C@@H](CCCNC(=N)N)NC(=O)c3cc(NC(=O)[C@@H](CCCNC(=N)N)NC(=O)c4cc(NC(=O)[C@H](N)Cc5c[nH]c6ccccc56)ccc4OC)ccc3OC)ccc2OCC(=O)O)cc1C(N)=O	50
COc1ccc(NC(=O)[C@H](CCCNC(=N)N)NC(=O)c2cc(NC(=O)[C@H](CCCNC(=N)N)NC(=O)c3cc(NC(=O)[C@H](CCCNC(=N)N)NC(=O)c4cc(NC(=O)[C@@H](N)CCCNC(=N)N)ccc4OC)ccc3OC)ccc2OC)cc1C(=O)NCC(=O)O	50
COc1ccc(NC(=O)[C@H](CCCCN)NC(=O)c2cc(NC(=O)[C@H](CCCCN)NC(=O)c3cc(NC(=O)[C@H](CCCCN)NC(=O)c4cc(NC(=O)[C@@H](N)Cc5c[nH]c6ccccc56)ccc4OC)ccc3OC)ccc2OC)cc1C(=O)N[C@@H](Cc1c[nH]c2ccccc12)C(=O)O	75

Now let's try a different one.
Problem: Item `COc1ccc(NC(=O)[C@H](CCCNC(=N)N)NC(=O)c2cc(NC(=O)[C@H](CCCNC(=N)N)NC(=O)c3cc(NC(=O)[C@H](CCCNC(=N)N)NC(=O)c4cc(NC(C)=O)ccc4OC)ccc3OCC(=O)O)ccc2OC)cc1C(=O)N[C@@H](Cc1c[nH]c2ccccc12)C(N)=O` has what recorded hemolysis at 1 h?
Solution: 25
